- System: hLiMTs
- Method Description: Combined HCI (HCS) and cellular ATP 3D assay in hLiMTs
- Cond: hLiMTs; all endpoints; cut-off <10 uM
Property Label: hLiMTs <10 uM All

A selection of reference data follows.
Compound	hLiMTs <10 uM All
CC(C)(C)NCC(O)COc1cccc2c1CC(O)C(O)C2 (stereo not shown) [nadolol]	-ve
CCc1ccc(CCOc2ccc(CC3SC(=O)NC3=O)cc2)nc1 (stereo not shown) [pioglitazone, reference compound]	+ve (<10 uM)
CC/C(=C(\c1ccccc1)c1ccc(OCCN(C)C)cc1)c1ccccc1 [tamoxifen]	+ve (<10 uM)
CS(=O)(=O)CCNCc1ccc(-c2ccc3ncnc(Nc4ccc(OCc5cccc(F)c5)c(Cl)c4)c3c2)o1 [lapatinib]	+ve (<10 uM)
Nc1cc(N2CCCCC2)nc(N)[n+]1[O-] [minoxidil]	-ve

input: Suppose we examine the compound CCCCc1oc2ccccc2c1C(=O)c1cc(I)c(OCCN(CC)CC)c(I)c1 [amiodarone] ; what hLiMTs <10 uM All value has been reported?
output: +ve (<10 uM)

input: Given CN(C)C(=N)N=C(N)N [metformin] , state its recorded hLiMTs <10 uM All.
output: -ve

input: So what does the record say about hLiMTs <10 uM All for NC(=O)N1c2ccccc2C=Cc2ccccc21 [carbamazepine, reference compound] ?
output: -ve

----------
- System: HepaRG spheroids
- Method Description: Combined HCI (HCS) and cellular ATP 3D assay in HepaRG spheroids
- Cond: HepaRG; all endpoints (ATP and HCS); cut-off <25x Avg Cmax
Property Label: HepaRG <25x Avg Cmax All

Take a look at these entries with their results.
Compound	HepaRG <25x Avg Cmax All
N[C@@H](Cc1cc(I)c(Oc2ccc(O)c(I)c2)c(I)c1)C(=O)O [liothyronine]	-ve
COc1ccc2c(c1)c(CC(=O)O)c(C)n2C(=O)c1ccc(Cl)cc1 [indomethacin]	+ve
O=C1CC2(CCCC2)CC(=O)N1CCCCN1CCN(c2ncccn2)CC1 [buspirone, reference compound]	-ve
NC(=O)N1c2ccccc2C=Cc2ccccc21 [carbamazepine, reference compound]	+ve
Cc1c(C)c2c(c(C)c1O)CCC(C)(COc1ccc(CC3SC(=O)NC3=O)cc1)O2 (stereo not shown) [troglitazone, reference compound]	+ve

input: Under HepaRG spheroids: HepaRG <25x Avg Cmax All value of Nc1cc(N2CCCCC2)nc(N)[n+]1[O-] [minoxidil] ?
output: -ve

input: Observed HepaRG <25x Avg Cmax All on HepaRG spheroids for Cc1c(-c2ccccc2)oc2c(C(=O)OCCN3CCCCC3)cccc2c1=O [flavoxate] , please.
output: -ve

----------
- System: HepaRG spheroids
- Method Description: Combined HCI (HCS) and cellular ATP 3D assay in HepaRG spheroids
- Cond: HepaRG; HCS endpoints; cut-off <25x Avg Cmax
Property Label: HepaRG <25x Avg Cmax HCS

Molecule	HepaRG <25x Avg Cmax HCS
CCOC(=O)CN[C@@H](C(=O)N1CC[C@H]1C(=O)NCc1ccc(/C(N)=N\O)cc1)C1CCCCC1 [ximelagatran]	-ve
Cc1ccc(C(=O)c2cc(O)c(O)c([N+](=O)[O-])c2)cc1 [tolcapone, reference compound]	+ve
N[C@@H](Cc1cc(I)c(Oc2ccc(O)c(I)c2)c(I)c1)C(=O)O [liothyronine]	-ve
COc1ccc2c(c1)c(CC(=O)O)c(C)n2C(=O)c1ccc(Cl)cc1 [indomethacin]	+ve
CC[C@H]1OC(=O)[C@H](C)[C@@H](O[C@H]2C[C@@](C)(OC)[C@@H](O)[C@H](C)O2)[C@H](C)[C@@H](O[C@@H]2O[C@H](C)C[C@H](N(C)C)[C@H]2O)[C@](C)(O)C[C@@H](C)C(=O)[C@H](C)[C@@H](O)[C@]1(C)O [erythromycin]	+ve
Clc1ccccc1CN1CCc2sccc2C1 [ticlopidine]	+ve

We next turn to a different molecule, shown below.
input: Fill in the blank: the reported HepaRG <25x Avg Cmax HCS of O=C(O)Cc1ccccc1Nc1c(Cl)cccc1Cl [diclofenac] is ____.
output: +ve
